Cathepsin D (Homo sapiens, UniProt P07339) measurements of IC50, listed per entry.
Sequence (P07339 65-162 limits assumed): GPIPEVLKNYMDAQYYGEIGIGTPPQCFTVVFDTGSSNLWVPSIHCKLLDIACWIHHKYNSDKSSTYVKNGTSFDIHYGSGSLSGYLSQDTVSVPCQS
Sequence (P07339 169-412 limits assumed): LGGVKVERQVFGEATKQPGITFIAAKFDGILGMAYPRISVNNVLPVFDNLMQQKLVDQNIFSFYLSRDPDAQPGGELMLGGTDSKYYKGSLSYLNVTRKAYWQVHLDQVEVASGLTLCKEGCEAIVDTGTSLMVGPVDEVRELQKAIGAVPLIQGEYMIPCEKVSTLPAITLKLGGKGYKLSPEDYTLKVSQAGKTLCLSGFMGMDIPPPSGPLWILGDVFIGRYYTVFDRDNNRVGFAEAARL
In your response, put the unit directly after the numeric value.

Check out these entries, answers already filled in.
COMPOUND	ASSAYED_TARGET	RESULT
COc1ccc(C2(c3cccc(-c4cccnc4)c3)N=C(N)N(C)C2=O)cc1OC (centres undefined)	Cathepsin D (Homo sapiens, UniProt P07339)	23.1 µM
COc1ccc(C2(c3cccc(-c4cccnc4)c3)N=C(N)N(C)C2=O)cc1OC1CCCC1 (centres undefined)	Cathepsin D (Homo sapiens, UniProt P07339)	8.3 µM
COc1ccc([C@]2(c3ccc(F)c(-c4cccnc4F)c3)N=C(N)N(C)C2=O)cc1C	Cathepsin D (Homo sapiens, UniProt P07339)	2.71 µM
CCCCOc1cc(C2(c3cccc(-c4cccnc4)c3)N=C(N)N(C)C2=O)ccc1OC (centres undefined)	Cathepsin D (Homo sapiens, UniProt P07339)	8.18 µM
COc1ccc(C2(c3ccc(F)c(-c4cncnc4)c3)N=C(N)N(C)C2=O)cc1C (centres undefined)	Cathepsin D (Homo sapiens, UniProt P07339)	6.7 µM

// fetch IC50 for CN1C(=O)C(c2ccc(OC(F)(F)F)cc2)(c2cc(F)cc(-c3cncnc3)c2)N=C1N (centres undefined) ; system: Cathepsin D (Homo sapiens, UniProt P07339) 8.55 µM

Look up and report measured IC50 (Cathepsin D (Homo sapiens, UniProt P07339)) for the following compound: COc1ccc(C2(C34CC5CC(CC(C5)C3)C4)N=C(N)N(C)C2=O)cc1OC (centres undefined) 36.6 µM

Please look at COc1ccc(C2(c3cccc(-c4cccnc4)c3)N=C(N)N(C)C2=O)cc1C(F)(F)F (centres undefined) and tell me its recorded IC50 on Cathepsin D (Homo sapiens, UniProt P07339). 3.51 µM

Answer with IC50 of COc1ccc(C2(c3ccc(F)c(-c4cccnc4F)c3)N=C(N)N(C)C2=O)cc1C (centres undefined) measured for Cathepsin D (Homo sapiens, UniProt P07339). 2.41 µM

Just for reference, ChEMBL document CHEMBL1156789 is where these values come from.
